target: HLA-A*02:01 (peptide-receptive MHC class I molecule, heavy chain with beta-2-microglobulin) (human)
test: UV-ligand exchange, anti-b2m ELISA; peptide exchange yield grade (>10% = +; >20% = ++; >50 = +++; >75% = ++++)
reported-endpoint: peptide exchange yield

>  <binder>
SILSLLIKL (synthetic peptide; source gene UBR3) [SILSLLIKL (SEQ ID NO: 7)]

>  <meas-value>
20 to 50%

$$$$
>  <binder>
TVPPVFVSV (synthetic peptide; source gene KCNMA1) [TVPPVFVSV (SEQ ID NO: 51)]

>  <meas-value>
50 to 75%

$$$$
>  <binder>
VLVSSVLGV (synthetic peptide; source gene SIGIRR) [VLVSSVLGV (SEQ ID NO: 22)]

>  <meas-value>
50 to 75%

$$$$
>  <binder>
IGIGPVLNI (synthetic peptide; source gene TMLHE) [IGIGPVLNI (SEQ ID NO: 29)]

>  <meas-value>
10 to 20%

$$$$
>  <binder>
VLGPEGQLV (synthetic peptide; source gene GLYATL2) [VLGPEGQLV (SEQ ID NO: 21)]

>  <meas-value>
50 to 75%

$$$$
>  <binder>
GLGPNLVGV (synthetic peptide; source genes SLC25A36, SLC25A33) [GLGPNLVGV (SEQ ID NO: 23)]

>  <meas-value>
> 75%

$$$$

Task: Returns the measured peptide exchange yield for the input binder. Input: VLNPETTVV (synthetic peptide; source gene PAPSS1) [VLNPETTVV (SEQ ID NO: 27)]
Result: 50 to 75%

Task: For FLVDSLISA (synthetic peptide; source gene HOXD10) [FLVDSLISA (SEQ ID NO: 14)] then?
Result: > 75%

Provenance of the data: patent US20170260249A1
